- method_summary: Metabolic stability in CD1 mouse liver microsomes at 10 uM after 30 mins
- Assay type: ADME, Microsome
- experimental_conditions: read-out: Stability
property: remaining at 0.5 h, 10 µM (%)
Value expressed in %; do not type the unit.

// lookup remaining at 0.5 h, 10 µM for `Cc1nn(C)cc1-c1nc2ncc(Cl)c(Oc3ccc(C(=O)NC4CCC4)cc3)c2[nH]1`
28

====

- method_summary: Metabolic stability in CD1 mouse liver microsomes at 10 uM after 30 mins
- Type: ADME, Microsome
property: metabolized at 0.5 h, 10 µM

Given the molecule `Cc1nn(C)cc1-c1nc2c(Oc3ccc(C(=O)Nc4ccccc4)cc3)c(Cl)cnc2[nH]1` , what is its reported metabolized at 0.5 h, 10 µM?
22%
